Target: Microphthalmia-associated transcription factor (Homo sapiens) (UniProt O75030)
Sequence (O75030 whole entry, looked up): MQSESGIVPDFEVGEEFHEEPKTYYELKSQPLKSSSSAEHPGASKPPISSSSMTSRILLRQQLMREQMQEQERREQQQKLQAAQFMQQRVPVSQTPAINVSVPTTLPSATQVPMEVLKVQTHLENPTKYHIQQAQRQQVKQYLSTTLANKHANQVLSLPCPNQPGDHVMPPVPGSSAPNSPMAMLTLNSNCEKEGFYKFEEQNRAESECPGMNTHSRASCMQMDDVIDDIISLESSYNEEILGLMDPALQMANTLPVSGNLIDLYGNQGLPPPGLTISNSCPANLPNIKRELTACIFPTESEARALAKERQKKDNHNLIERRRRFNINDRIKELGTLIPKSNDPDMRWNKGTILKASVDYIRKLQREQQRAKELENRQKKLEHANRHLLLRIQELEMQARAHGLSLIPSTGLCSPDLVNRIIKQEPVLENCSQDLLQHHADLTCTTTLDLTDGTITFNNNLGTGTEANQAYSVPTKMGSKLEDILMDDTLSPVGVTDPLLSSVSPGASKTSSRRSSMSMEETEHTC
Test: MITF inhibitors by FRET titration, dose response, biochemical, high throughput (AID 1259375);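 further: FRET between CFP-tagged and YFP-tagged MITF protein partners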
Conditions: FRET biochemical assay, MITF inhibition
The source made the active and inactive calls. How the calls were made is not given here.
Response enum: y (active), n (inactive)

Examples with answers:
C[C@@H](OCc1ccccc1)[C@@H]1NC(=O)[C@H]2CN(C(=O)NC3CCCCC3)CCN2C1=O	n
CC[C@@H]1NC(=O)[C@H]2CN(C(=O)NC3CCCCC3)CCN2C1=O	n
O=C(NNC(=O)c1cc(-c2ccco2)nc2ccccc12)NC1CCCCC1	n
Nc1ccc(C(=O)O)c(O)c1	y
O=C(Nc1ccc(-c2ccncc2)c(C(F)(F)F)c1)C1COc2ccccc2O1 (stereo unspecified)	n
Cc1ccc(/C(C#N)=C\c2ccco2)cc1	n
C[C@H]1C(=O)N2CCN(C(=O)NCc3ccccc3)C[C@@H]2C(=O)N1C	n
O=C(COC(=O)/C=C/c1ccco1)NCc1ccco1	n
CN1CCN(CCNC(=O)c2cccc(CN(C(=O)c3nc4ccc(-c5cn[nH]c5)cc4s3)C3CC3)c2)CC1	n
COc1ccc(OC)c(NC(=O)c2cc3ccc(O)cc3oc2=Nc2ccc(C(=O)O)cc2)c1	n

Data request: # lookup: test call for Cc1ccc(C)n1C(Cc1c[nH]c2ccccc12)C(=O)O (stereo unspecified)
Data returned: n

----------
Biological target: UniProtKB O75030
Experiment: MITF inhibitors by FRET titration, dose response, biochemical, high throughput (AID 1259375);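 further: FRET between CFP-tagged and YFP-tagged MITF protein partners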
Details: FRET biochemical assay, MITF inhibition
The source made the active and inactive calls. The rule behind the calls is not given here.
Recorded IC50 values for a group of compounds are listed next.

O=C(O)c1cc(C(=O)O)cc(-c2ccc(/C=N\n3cnnc3)o2)c1	> 6.48 µM (inactive)
CN1C(=O)[C@H]2CN(C(=O)NC3CCCCC3)CCN2C(=O)[C@@H]1Cc1ccccc1	> 6.48 µM (inactive)
O=c1[nH]c(-c2ccco2)nc2sc3c(c12)CCCC3	> 9.74 µM (inactive)
Cc1ccc(C(=O)N/C(=C/c2ccc([N+](=O)[O-])o2)C(=O)O)cc1	> 5.88 µM (inactive)
O=C(NCCc1ccc(O)cc1)c1ccnc(-c2cccs2)c1	> 6.77 µM (inactive)

Data request: Report IC50 for O=C1NC(=S)N/C1=C\c1ccc([N+](=O)[O-])o1 please.
Data returned: > 7.74 µM (inactive)

----------
Molecular target: Microphthalmia-associated transcription factor (Homo sapiens) (UniProt O75030)
Test: MITF inhibitors by FRET titration, dose response, biochemical, high throughput (AID 1259375);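 further: FRET between CFP-tagged and YFP-tagged MITF protein partners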
Details: FRET biochemical assay, MITF inhibition
The source made the active and inactive calls. The rule behind the calls is not given here.
Quantity Measured: IC50

O=C(O)CCC(NCc1ccco1)C(=O)O (stereo unspecified)	> 6.85 µM (inactive)

Data request: Suppose we examine the compound c1ccc2c(c1)OCC(c1nc3c(-c4ccncc4)cncc3[nH]1)O2 (stereo unspecified) ; what IC50 value has been reported?
Data returned: > 6.48 µM (inactive)

Data request: Next: O=C(/C=C/c1ccco1)C1=C(O)C(=O)N(CCCN2CCOCC2)C1c1ccco1 (stereo unspecified)
Data returned: > 6.48 µM (inactive)

Data request: Also O=C(O)c1cc2ncc(-c3n[nH]c(-c4cnc5cc(C(=O)O)nn5c4)c3[N+](=O)[O-])cn2n1 ?
Data returned: > 6.48 µM (inactive)

Data request: Repeat with O=C(/C=C/c1ccco1)Nc1nnc(-c2ccco2)s1
Data returned: > 6.48 µM (inactive)

Data request: Next up: O=C(/C=C/c1ccco1)NCCCCCCNC(=O)/C=C/c1ccco1
Data returned: > 6.48 µM (inactive)

Data request: Repeat for the following compound: Cc1cc(CSC(=N)N)c(O)c(C)n1
Data returned: > 6.48 µM (inactive)

Data request: Queued: Cc1cc(/C=C2/C=CC(=O)O2)oc1C
Data returned: > 7.29 µM (inactive)

Data request: Let us now turn to CN(C)CCS(=O)c1cc(-c2cn[nH]c2)ccc1NC(=O)[C@@H]1Cc2cc(F)ccc2CN1 (stereo partly specified)
Data returned: > 6.48 µM (inactive)

Data request: Also O=C(COC(=O)c1cc(-c2ccco2)nc2ccccc12)NC1CC1 , if possible.
Data returned: > 6.94 µM (inactive)

Data request: Let us now turn to Cc1sc2nc(C)n3c(=O)n(CC(=O)NCc4ccco4)nc3c2c1C
Data returned: > 6.48 µM (inactive)

----------
Biological target: Microphthalmia-associated transcription factor (Homo sapiens)
Assay: MITF inhibitors by FRET titration, dose response, biochemical, high throughput (AID 1259375);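 further: FRET between CFP-tagged and YFP-tagged MITF protein partners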
Conditions: FRET biochemical assay, MITF inhibition
Active and inactive are the calls of the source. No rule for the calls is given here.
// reported IC50 for each item listed

Take a look at these entries with their results.
Cc1nnc(CNC(=O)c2ccc(-n3cccc3)cc2)o1	> 6.48 µM (inactive)
COC(=O)CCc1cc2c(C)cc(=O)oc2cc1OCc1ccc(C)cc1	> 6.48 µM (inactive)
O=C(NC1CCN(Cc2ccccc2)CC1)c1ccc2nc(-c3cccs3)sc2c1	> 6.38 µM (inactive)

Data request: Quick one: IC50 of CCOC1=CC(c2ccc3c(c2)OCO3)CC(=O)c2c(C)oc(C)c21 (stereo not given) ?
Data returned: > 6.48 µM (inactive)

Data request: Input COc1ccc(CCNC(=O)CN2CCN(Cc3nc(-c4ccco4)cs3)CC2)cc1OC
Data returned: > 6.48 µM (inactive)

Data request: Same again, this time with C[C@@H]1NC(=O)[C@H]2CN(C(=O)NCc3ccccc3)CCN2C1=O
Data returned: > 6.48 µM (inactive)

Data request: Again, but for O=C(O)c1cc(-c2ccco2)nc2ccccc12
Data returned: > 7.59 µM (inactive)

----------
Target: Microphthalmia-associated transcription factor (Homo sapiens) (UniProt O75030)
Experiment: MITF inhibitors by FRET titration, dose response, biochemical, high throughput (AID 1259375);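 further: FRET between CFP-tagged and YFP-tagged MITF protein partners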
Conditions: FRET biochemical assay, MITF inhibition
The source made the active and inactive calls. The rule behind the calls is not given here.
Respond with a class label; see active, inactive

O=C(Nc1ccc(N2CCOCC2)cc1)c1cccc(Nc2ccncn2)n1	inactive
CC(=O)NC1=NC(=O)/C(=C\c2ccc(Br)o2)S1	inactive
COc1cc(C(=O)N2CCN(Cc3ccccc3C)CC2)cc(OC)c1OC	inactive
N=C1S/C(=C\c2ccco2)C(=O)N1c1nonc1N	active
CSc1ccc(C(=O)O)s1	inactive
N#C/C(=C\c1nn(-c2ccccc2)c(N)c1C#N)c1ccco1	inactive

Data request: Give the logged outcome of this assay for the following molecule: CCCCOc1ccc(C(=O)N/C(=C/c2ccco2)C(=O)O)cc1
Data returned: inactive

Data request: Cool, now CC(C)N(C)CCOC(=O)/C=C/c1ccco1
Data returned: inactive

Data request: What do you have for CN(C)c1cc(NC(=O)CNC(C)(C)C)c(O)c2c1C[C@H]1C[C@H]3[C@@H](N(C)C)C(=O)C(C(N)=O)=C(O)[C@@]3(O)C(=O)C1=C2O ?
Data returned: inactive

Data request: Try the molecule CCN1CCc2c(sc(NC(=S)NC(=O)/C=C/c3ccco3)c2C(N)=O)C1
Data returned: inactive

Data request: Also COc1ccc(CN2CCN(Cc3ccccc3OC)CC2)cc1 , if possible.
Data returned: inactive

----------
Molecular target: Microphthalmia-associated transcription factor (Homo sapiens)
Assay: MITF inhibitors by FRET titration, dose response, biochemical, high throughput (AID 1259375);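 further: FRET between CFP-tagged and YFP-tagged MITF protein partners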
Settings: FRET biochemical assay, MITF inhibition
Active and inactive are the calls of the source. No rule for the calls is given here.
Hello, when you answer, please use one of the following outcomes: active, inactive

O=C1N[C@H](Cc2ccccc2)C(=O)N2CCN(C(=O)NCc3ccccc3)C[C@H]12	inactive

Data request: For CC(=O)CC1=C(C(=O)O)N2C(=O)C(N)C2SC1 (stereo unspecified) , what call appears in the results of this test?
Data returned: inactive

Data request: Please do the same for O=C(c1ccncc1)N1C2C=CC(C2)C1(C(F)(F)F)C(F)(F)F (stereo unspecified) as well.
Data returned: inactive

----------
Each entry below carries its recorded IC50.
Target: UniProtKB O75030
Test: MITF inhibitors by FRET titration, dose response, biochemical, high throughput (AID 1259375);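 further: FRET between CFP-tagged and YFP-tagged MITF protein partners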
Details: FRET biochemical assay, MITF inhibition
Activity calls are given as the source filed them. No rule for the calls is given here.

Examples from the recorded data:
Cc1ccc(C)n1C(CC(=O)O)c1ccsc1 (stereo not given)	> 6.76 µM (inactive)
Cc1ccc2[nH]c(=O)c(=O)[nH]c2c1	> 12.1 µM (inactive)

Data request: Given the compound Nc1cc2c(S(=O)(=O)O)cc(S(=O)(=O)O)cc2cc1S(=O)(=O)O , what is its reported IC50?
Data returned: > 6.48 µM (inactive)

----------
Molecular target: Microphthalmia-associated transcription factor (Homo sapiens) (UniProt O75030)
Test: MITF inhibitors by FRET titration, dose response, biochemical, high throughput (AID 1259375);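 further: FRET between CFP-tagged and YFP-tagged MITF protein partners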
Conditions: FRET biochemical assay, MITF inhibition
Activity calls are given as the source filed them. No rule for the calls is given here.
Answer with one of the outcomes given here: 1.0 for active, 0.0 for inactive

Example entries begin here.
C[C@H]1C(=O)N2CCN(C(=O)NC3CCCCC3)C[C@@H]2C(=O)N1C	0.0
C/C(=N\Nc1ccc(S(=O)(=O)O)cc1)c1ccc([N+](=O)[O-])o1	0.0
CN(C)[C@@H]1C(=O)C(C(=O)NCN2CCCC2)=C(O)[C@@]2(O)C(=O)C3=C(O)c4c(O)cccc4[C@@](C)(O)[C@H]3C[C@@H]12	0.0
O=C(c1ccc([N+](=O)[O-])cc1)N1CCN(Cc2cccc3ccccc23)CC1	0.0
O=C(NCCO)c1cccc(-c2cccs2)c1	0.0
Nc1ccc(O)c(C(=O)O)c1	1.0

Data request: Recorded call for COc1cc(C=Nc2ccc(N(C)C)cc2)cc(I)c1O ?
Data returned: 0.0

Data request: Likewise for CCN(C(=O)C1COc2ccccc2O1)C12CC3CC(CC(C3)C1)C2 (configuration not stated) ?
Data returned: 0.0

Data request: Likewise for CN(C)CCCNC(=O)c1cccc(CN(C(=O)c2nc3ccc(-c4cn[nH]c4)cc3s2)C2CC2)c1 ?
Data returned: 0.0

Data request: Then this compound: NS(=O)(=O)c1ccc(N=Cc2cc3c(cc2[N+](=O)[O-])OCO3)cc1
Data returned: 0.0

Data request: Also need COc1cc(/C=N/N=C2\NC(=O)C(CC(=O)O)S2)ccc1OCc1ccc(C)cc1 (configuration not stated) , thanks.
Data returned: 0.0
